The reported measurements were obtained from ChEMBL document CHEMBL1667809.

Kindly supply the reported MIC values for the records listed here.
# System: Staphylococcus epidermidis
# assay_text: Antibacterial activity against methicillin-sensitive Staphylococcus epidermidis 10-4 after 18 to 24 hrs by agar dilution method
# Format: functional
Give bare numbers, in µg/mL.

Please review the following examples before continuing.
CCO/N=C1\CC(N)CN(c2c(F)cc3c(=O)c(C(=O)O)cn(C4CC4)c3c2OC)C1 (stereo not drawn) = 1
CCO/N=C1\CC(NC)CN(c2c(F)cc3c(=O)c(C(=O)O)cn(C4CC4)c3c2OC)C1 (stereo not drawn) = 0.25

Moving on to the next molecule.
IN: Could you share which MIC value was measured for CCO/N=C1\CC(NC)CN(c2c(F)cc3c(=O)c(C(=O)O)cn(C4CC4)c3c2F)C1 (stereo not drawn) ?
OUT: 0.5
